This collection of values is drawn from PubChem BioAssay (NCI).

test system: OVCAR-8 ovarian; experiment: NCI tumour cell line growth inhibition, 48 h
Answer each item with its documented TGI.

Q. Provide TGI value for the following molecule: CSC1C(=O)Nc2ccc3ccccc3c21 (centres undefined)
A. 34.9 µM

Q. Determine its reported TGI: O=C(O)C1CCCCC1c1c2ccc(=O)c(O)c-2oc2c(O)c(O)ccc12 (centres undefined)
A. 88.7 µM

Q. Give the reported TGI for this molecule. C[N+](C)(C)CC1CCC/C1=N/O (centres undefined)
A. 4.34 µM

Q. Quote TGI reported for CCN1C(=O)CCCc2c1ccc(Nc1ncc(Cl)c(NC3[C@@H](C(N)=O)[C@@H]4C=C[C@H]3C4)n1)c2OC (some centres undefined) please.
A. 32.2 µM

Q. Report measured TGI; entry is CCCCCCCCCCCCc1ccc(S(=O)(=O)O)cc1.[Zn+2]
A. > 100 µM

Q. Tell us which TGI value is on record for COc1cc2cc(C(=O)N3CC(CCl)c4c3cc(NC(=O)OCc3ccc([N+](=O)[O-])cc3)c3ccccc43)[nH]c2c(OC)c1OC (centres undefined)
A. > 100 µM

Q. Output measured TGI for this item: COc1ccc2c(C3(c4cn(C)c5cc(OC)ccc45)C(=O)Nc4ccc(Cl)cc43)cn(C)c2c1
A. > 100 µM

Q. Note TGI for the molecule shown: CCCCC(C)C(OC(=O)CC(CC(=O)O)C(=O)O)C(CC(C)CC(O)CCCCC(O)CC(O)C(C)N)OC(=O)CC(CC(=O)O)C(=O)O (centres undefined)
A. > 100 µM

Q. State, in one line, measured TGI of COc1cc(OC)c2nccc(NCCCN(C)C)c2c1[N+](=O)[O-]
A. > 100 µM
